# Test system: HOP-62 NSCLC
# MEASUREMENT_NOTES: NCI-60 one-dose screen, 48 h (100 = growth as untreated, 0 = no growth, -100 = all killed)
# EXPERIMENTAL_CONDITIONS: 10 µM unless noted
About 83,000 compounds went through this panel and 20% of them were active in at least one assay; those are over-represented in the sample as a whole.
Classification field: Satisfied = growth at or over 50%; Not satisfied = growth under 50%.

*Q* Does growth meet or surpass 50% for CC1=C(CCCOC(=O)NCCCl)C2=C(C)C3(CC3)[C@@](C)(O)C(=O)C2=C1 ?
*A* Not satisfied

*Q* Does growth meet or surpass 50% for COc1ccc(C(=S)c2cc(OC)c(OC)c(OC)c2)cc1OC(=O)CCl ?
*A* Not satisfied

*Q* Does growth meet or surpass 50% for S=C(Nc1ccc(Cl)cc1)c1ccccn1 ?
*A* Satisfied

*Q* Does growth meet or surpass 50% for Cc1nnc(/N=C2\NC(=O)/C(=C/c3ccc(N(C)C)cc3)S2)s1 ?
*A* Satisfied

*Q* Does growth meet or surpass 50% for COc1ccc(C(=O)c2cc(F)c(F)c(OC)c2F)cc1OC(=O)CCl ?
*A* Not satisfied

*Q* Does growth meet or surpass 50% for COc1cc(/C=C/C(=O)c2cccs2)ccc1OCc1ccc(Cl)nc1 ?
*A* Satisfied

*Q* Does growth meet or surpass 50% for CCOC(=O)NC(Cc1ccccc1)c1ccccc1 (centres undefined) ?
*A* Satisfied

*Q* Does growth meet or surpass 50% for Cn1c2c(c3ccc(-c4ccn[nH]4)cc3c1=O)C(=O)c1ccccc1-2 ?
*A* Not satisfied

*Q* Does growth meet or surpass 50% for OCCNc1nc(NCCO)nc(Nc2ccc(C3=NN(c4cc(Cl)cc(Cl)c4)C(c4ccc(Cl)cc4)C3)cc2)n1 (centres undefined) ?
*A* Not satisfied

*Q* Does growth meet or surpass 50% for COc1ccc2nc3c(n2c1)C(=O)C(=O)c1ccccc1-3 ?
*A* Not satisfied

*Q* Does growth meet or surpass 50% for O=C(O)CCNC1CCCCC1 ?
*A* Satisfied

*Q* Does growth meet or surpass 50% for CCN(CC)CC#CCOC(=O)[C@]1(C)CCC[C@]2(C)[C@H]3C[C@H]4C(C(C)C)=C[C@]3(CC[C@H]21)[C@@H]1C(=O)CCC(=O)[C@@H]14 ?
*A* Satisfied

*Q* Does growth meet or surpass 50% for CCN1CCN(c2ccc(NC(=O)Nc3nc4ccc(-c5ccccc5OC)cc4s3)cc2)CC1 ?
*A* Not satisfied
